molecular target: K^HB-RWDM^Dsn1Δ257 (Knl1c:Mis12c^Mtw1c complex, Knl1^Spc105 residues 1–444 and Dsn1 residues 1–257 deleted); construct: made in house; host or cells: High-5 insect cells (baculovirus); assay: ITC, Dsn1 peptide titrated into K^HB-RWDM^Dsn1Δ257; assay type: binding, S. cerevisiae; conditions: read-out: KD (ITC) of phosphomimetic Dsn1 peptide; ITC, 25°C, 25 mM HEPES pH 7.5, 100 mM NaCl, 1 mM TCEP; syringe 0.35 mM, cell 0.025 mM; average from two experiments (technical repeats)
Sequence (P47149 whole entry, stated change not applied, the tested form may be a part): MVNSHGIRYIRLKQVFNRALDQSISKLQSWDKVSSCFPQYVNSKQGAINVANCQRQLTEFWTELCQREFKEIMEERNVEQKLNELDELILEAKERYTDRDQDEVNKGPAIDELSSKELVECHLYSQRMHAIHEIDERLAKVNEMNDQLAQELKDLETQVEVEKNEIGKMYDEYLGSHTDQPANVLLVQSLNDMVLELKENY
Sequence (P39731 whole entry, stated change not applied, further chain, the tested form may be a part): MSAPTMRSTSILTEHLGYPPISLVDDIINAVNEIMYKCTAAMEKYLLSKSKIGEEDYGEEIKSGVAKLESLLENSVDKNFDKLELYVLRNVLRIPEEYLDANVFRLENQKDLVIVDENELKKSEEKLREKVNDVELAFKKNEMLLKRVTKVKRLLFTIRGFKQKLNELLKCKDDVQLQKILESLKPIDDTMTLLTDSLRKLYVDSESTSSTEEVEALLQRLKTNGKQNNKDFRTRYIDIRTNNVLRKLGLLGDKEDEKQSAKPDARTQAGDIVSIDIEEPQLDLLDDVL
Sequence (P40568 258-576, stated change not applied, further chain): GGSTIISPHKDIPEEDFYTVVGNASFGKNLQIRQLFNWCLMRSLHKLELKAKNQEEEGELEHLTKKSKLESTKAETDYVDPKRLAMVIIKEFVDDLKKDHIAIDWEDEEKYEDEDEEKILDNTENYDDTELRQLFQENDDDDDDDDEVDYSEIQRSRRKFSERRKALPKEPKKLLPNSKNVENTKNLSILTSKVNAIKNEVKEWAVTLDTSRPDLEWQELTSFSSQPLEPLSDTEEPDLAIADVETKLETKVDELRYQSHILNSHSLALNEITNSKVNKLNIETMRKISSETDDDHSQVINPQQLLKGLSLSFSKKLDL
Sequence (Q04431 whole entry, stated change not applied, further chain, the tested form may be a part): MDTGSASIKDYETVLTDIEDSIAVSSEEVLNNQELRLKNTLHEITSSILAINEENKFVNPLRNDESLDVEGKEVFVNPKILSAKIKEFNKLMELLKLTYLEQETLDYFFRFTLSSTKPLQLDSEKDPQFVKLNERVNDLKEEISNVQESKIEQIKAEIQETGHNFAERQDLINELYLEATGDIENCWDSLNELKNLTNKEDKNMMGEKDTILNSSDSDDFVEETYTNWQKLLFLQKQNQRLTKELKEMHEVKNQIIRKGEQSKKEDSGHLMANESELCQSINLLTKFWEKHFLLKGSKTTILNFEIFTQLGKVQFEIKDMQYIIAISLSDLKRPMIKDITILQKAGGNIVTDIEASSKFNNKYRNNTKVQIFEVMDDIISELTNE
Sequence (Q12143 whole entry, stated change not applied, further chain, the tested form may be a part): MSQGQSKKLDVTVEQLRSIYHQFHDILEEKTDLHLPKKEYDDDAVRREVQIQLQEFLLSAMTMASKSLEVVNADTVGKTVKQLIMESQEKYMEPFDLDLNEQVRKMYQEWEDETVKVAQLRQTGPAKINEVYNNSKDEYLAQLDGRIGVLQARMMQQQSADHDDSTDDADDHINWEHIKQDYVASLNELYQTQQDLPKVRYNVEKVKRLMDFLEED
Sequence (P53148 445-917, stated change not applied, further chain): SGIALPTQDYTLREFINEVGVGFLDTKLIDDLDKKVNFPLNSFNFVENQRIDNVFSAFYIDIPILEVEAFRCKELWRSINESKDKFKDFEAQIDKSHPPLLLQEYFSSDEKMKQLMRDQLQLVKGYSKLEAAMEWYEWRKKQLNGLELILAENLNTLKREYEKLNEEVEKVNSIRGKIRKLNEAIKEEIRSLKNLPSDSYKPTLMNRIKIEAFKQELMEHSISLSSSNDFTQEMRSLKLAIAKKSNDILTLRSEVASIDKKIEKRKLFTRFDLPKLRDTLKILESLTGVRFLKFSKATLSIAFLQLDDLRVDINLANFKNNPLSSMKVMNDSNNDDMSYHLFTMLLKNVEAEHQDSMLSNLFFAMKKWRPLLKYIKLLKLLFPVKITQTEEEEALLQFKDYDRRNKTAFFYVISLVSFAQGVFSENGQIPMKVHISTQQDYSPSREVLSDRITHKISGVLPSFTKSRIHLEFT
parameter: Kd (µM)

{"columns": ["substance", "assayResult"],
 "data": [
  ["Ac-PHYIQRTRERKKEIGSQRGRRLEMLASGSAW-NH2 [Dsn1^228-254,S240E,S250E]", 6]
]}
